These entries and their values trace back to ChEMBL document CHEMBL1140279.

Tested on: MRC5
Experiment: Ratio of CC50/IC50 was determined
Type: functional, Homo sapiens
Catalogue of compounds with associated Ratio

{"Structure Notation": "N#CCCCCN(CCCN1CCN(CCCNc2ccnc3cc(Cl)ccc23)CC1)CC1CC1", "Ratio": 404}
{"Structure Notation": "O=C(O)CCC(=O)N(CCCN1CCN(CCCNc2ccnc3cc(Cl)ccc23)CC1)CC1CC1", "Ratio": ">23"}
{"Structure Notation": "O=C(CCCO)N(CCCN1CCN(CCCNc2ccnc3cc(Cl)ccc23)CC1)CC1CC1", "Ratio": 122}
{"Structure Notation": "NCCCN(CCCN1CCN(CCCNc2ccnc3cc(Cl)ccc23)CC1)CC1CC1", "Ratio": ">210"}
{"Structure Notation": "CC(C)(C)OC(=O)NCCCN(CCCN1CCN(CCCNc2ccnc3cc(Cl)ccc23)CC1)CC1CC1", "Ratio": 317}
{"Structure Notation": "CC(C)(C)OC(=O)NCCC(=O)N(CCCN1CCN(CCCNc2ccnc3cc(Cl)ccc23)CC1)CC1CC1", "Ratio": 116}
{"Structure Notation": "O=C(C1CC1)N(CCCN1CCN(CCCNc2ccnc3cc(Cl)ccc23)CC1)CC1CC1", "Ratio": 2076}
{"Structure Notation": "NCCC(=O)N(CCCN1CCN(CCCNc2ccnc3cc(Cl)ccc23)CC1)CC1CC1", "Ratio": ">80"}
